# Test system: HeLa cells
# particulars: microscopy
Listing of recorded MCC (compound concentration causing minimal changes in cell morphology) by entry.
reportedProperty: MCC (compound concentration causing minimal changes in cell morphology)

{"structure": "CCCCN1C(=O)CS/C1=N\\NC(=O)c1[nH]c2ccc(F)cc2c1-c1ccccc1", "measuredValue": ">100 μg/mL"}
{"structure": "CCN1C(=O)CS/C1=N\\NC(=O)c1[nH]c2ccc(F)cc2c1-c1ccccc1", "measuredValue": ">100 μg/mL"}
{"structure": "C=CCN1C(=O)CS/C1=N\\NC(=O)c1[nH]c2ccc(F)cc2c1-c1ccccc1", "measuredValue": ">100 μg/mL"}
{"structure": "O=C(N/N=C1\\SCC(=O)N1CCc1ccccc1)c1[nH]c2ccc(F)cc2c1-c1ccccc1", "measuredValue": "100 μg/mL"}

----------
# Tested on: Vero cells
# particulars: microscopy
Listing of recorded MCC (compound concentration causing minimal changes in cell morphology) by entry.
reportedProperty: MCC (compound concentration causing minimal changes in cell morphology)

{"molecule": "CCCN1C(=O)CS/C1=N\\NC(=O)c1[nH]c2ccc(F)cc2c1-c1ccccc1 [Compound 7c]", "measuredValue": ">100 μg/mL"}
{"molecule": "CCCCN1C(=O)CS/C1=N\\NC(=O)c1[nH]c2ccc(F)cc2c1-c1ccccc1 [Compound 7e]", "measuredValue": ">10 μg/mL"}
{"molecule": "C=CCN1C(=O)CS/C1=N\\NC(=O)c1[nH]c2ccc(F)cc2c1-c1ccccc1 [Compound 7d]", "measuredValue": ">100 μg/mL"}
{"molecule": "CCCNC(=S)NNC(=O)c1[nH]c2ccc(F)cc2c1-c1ccccc1 [Compound 6c]", "measuredValue": "100 μg/mL"}

----------
# Tested on: HEL: human embryonic lung fibroblast cells
# particulars: microscopy
reportedProperty: MCC (compound concentration causing minimal changes in cell morphology)

{"structure": "O=C(NNC(=S)NCc1ccccc1)c1[nH]c2ccc(F)cc2c1-c1ccccc1", "assayedTarget": "HEL: human embryonic lung fibroblast cells", "measuredValue": ">10 μg/mL"}
{"structure": "O=C(N/N=C1\\SCC(=O)N1Cc1ccccc1)c1[nH]c2ccc(F)cc2c1-c1ccccc1", "assayedTarget": "HEL: human embryonic lung fibroblast cells", "measuredValue": ">10 μg/mL"}
{"structure": "CN1C(=O)CS/C1=N\\NC(=O)c1[nH]c2ccc(F)cc2c1-c1ccccc1", "assayedTarget": "HEL: human embryonic lung fibroblast cells", "measuredValue": ">100 μg/mL"}
{"structure": "CCCCNC(=S)NNC(=O)c1[nH]c2ccc(F)cc2c1-c1ccccc1", "assayedTarget": "HEL: human embryonic lung fibroblast cells", "measuredValue": ">10 μg/mL"}
{"structure": "O=C(N/N=C1\\SCC(=O)N1CCc1ccccc1)c1[nH]c2ccc(F)cc2c1-c1ccccc1", "assayedTarget": "HEL: human embryonic lung fibroblast cells", "measuredValue": ">10 μg/mL"}
{"structure": "CCN1C(=O)CS/C1=N\\NC(=O)c1[nH]c2ccc(F)cc2c1-c1ccccc1", "assayedTarget": "HEL: human embryonic lung fibroblast cells", "measuredValue": ">100 μg/mL"}
{"structure": "C=CCN1C(=O)CS/C1=N\\NC(=O)c1[nH]c2ccc(F)cc2c1-c1ccccc1", "assayedTarget": "HEL: human embryonic lung fibroblast cells", "measuredValue": ">100 μg/mL"}
{"structure": "CCCCN1C(=O)CS/C1=N\\NC(=O)c1[nH]c2ccc(F)cc2c1-c1ccccc1", "assayedTarget": "HEL: human embryonic lung fibroblast cells", "measuredValue": ">10 μg/mL"}
{"structure": "CCCN1C(=O)CS/C1=N\\NC(=O)c1[nH]c2ccc(F)cc2c1-c1ccccc1", "assayedTarget": "HEL: human embryonic lung fibroblast cells", "measuredValue": ">100 μg/mL"}

----------
Listing of recorded MCC (compound concentration causing minimal changes in cell morphology) by entry.
# Test system: MDCK: Madin-Darby canine kidney cells
# particulars: microscopy
reportedProperty: MCC (compound concentration causing minimal changes in cell morphology)

{"structure": "CCCCN1C(=O)CS/C1=N\\NC(=O)c1[nH]c2ccc(F)cc2c1-c1ccccc1", "measuredValue": ">10 μg/mL"}
{"structure": "CCCN1C(=O)CS/C1=N\\NC(=O)c1[nH]c2ccc(F)cc2c1-c1ccccc1", "measuredValue": ">100 μg/mL"}
{"structure": "O=C(N/N=C1\\SCC(=O)N1Cc1ccccc1)c1[nH]c2ccc(F)cc2c1-c1ccccc1", "measuredValue": ">10 μg/mL"}
{"structure": "CCN1C(=O)CS/C1=N\\NC(=O)c1[nH]c2ccc(F)cc2c1-c1ccccc1", "measuredValue": "100 μg/mL"}
{"structure": "O=C(NNC(=S)NCc1ccccc1)c1[nH]c2ccc(F)cc2c1-c1ccccc1", "measuredValue": ">10 μg/mL"}
{"structure": "O=C(N/N=C1\\SCC(=O)N1CCc1ccccc1)c1[nH]c2ccc(F)cc2c1-c1ccccc1", "measuredValue": ">10 μg/mL"}
{"structure": "CN1C(=O)CS/C1=N\\NC(=O)c1[nH]c2ccc(F)cc2c1-c1ccccc1", "measuredValue": "100 μg/mL"}
{"structure": "C=CCN1C(=O)CS/C1=N\\NC(=O)c1[nH]c2ccc(F)cc2c1-c1ccccc1", "measuredValue": "100 μg/mL"}

----------
Listing of recorded MCC (compound concentration causing minimal changes in cell morphology) by entry.
# Tested on: HeLa cells
# particulars: microscopy
reportedProperty: MCC (compound concentration causing minimal changes in cell morphology)

{"structure": "CN1C(=O)CS/C1=N\\NC(=O)c1[nH]c2ccc(F)cc2c1-c1ccccc1", "assayedTarget": "HeLa cells", "measuredValue": "100 μg/mL"}
{"structure": "O=C(N/N=C1\\SCC(=O)N1Cc1ccccc1)c1[nH]c2ccc(F)cc2c1-c1ccccc1", "assayedTarget": "HeLa cells", "measuredValue": ">100 μg/mL"}
{"structure": "CCCN1C(=O)CS/C1=N\\NC(=O)c1[nH]c2ccc(F)cc2c1-c1ccccc1", "assayedTarget": "HeLa cells", "measuredValue": ">100 μg/mL"}
